- measurement-target: mP2X7 (Mus musculus (Mouse))
- protocol-notes: mP2X7 channel calcium-influx assay (Fluo-8 NW, FLIPR TETRA, Bz-ATP stimulation)
Listing: IC50 of selected compounds
measured-attribute: IC50

>>> df
                                   compound  observed
0  O=C(NCC(c1scnc1C(F)F)N1CCC(COc2nccnc2F)CC1)c1c(F)cccc1Cl (stereo not shown)   30.5 nM
1  N#Cc1cnccc1OCC1CCN(C(CNC(=O)c2c(F)cccc2Cl)c2scnc2C(F)F)CC1 (stereo not shown)   44.2 nM
2  Cc1nsc(OC2CCN(C(CNC(=O)c3c(F)cccc3Cl)c3scnc3C(F)F)CC2)c1C#N (stereo not shown)   38.7 nM
3  O=C(NCC(c1scnc1C(F)F)N1CCC(COc2nc(Cl)cs2)CC1)c1c(F)cccc1Cl (stereo not shown)   32.7 nM

* * *

- measurement-target: mP2X7 (Mus musculus (Mouse), UniProt Q9Z1M0)
- Sequence (Q9Z1M0 whole entry): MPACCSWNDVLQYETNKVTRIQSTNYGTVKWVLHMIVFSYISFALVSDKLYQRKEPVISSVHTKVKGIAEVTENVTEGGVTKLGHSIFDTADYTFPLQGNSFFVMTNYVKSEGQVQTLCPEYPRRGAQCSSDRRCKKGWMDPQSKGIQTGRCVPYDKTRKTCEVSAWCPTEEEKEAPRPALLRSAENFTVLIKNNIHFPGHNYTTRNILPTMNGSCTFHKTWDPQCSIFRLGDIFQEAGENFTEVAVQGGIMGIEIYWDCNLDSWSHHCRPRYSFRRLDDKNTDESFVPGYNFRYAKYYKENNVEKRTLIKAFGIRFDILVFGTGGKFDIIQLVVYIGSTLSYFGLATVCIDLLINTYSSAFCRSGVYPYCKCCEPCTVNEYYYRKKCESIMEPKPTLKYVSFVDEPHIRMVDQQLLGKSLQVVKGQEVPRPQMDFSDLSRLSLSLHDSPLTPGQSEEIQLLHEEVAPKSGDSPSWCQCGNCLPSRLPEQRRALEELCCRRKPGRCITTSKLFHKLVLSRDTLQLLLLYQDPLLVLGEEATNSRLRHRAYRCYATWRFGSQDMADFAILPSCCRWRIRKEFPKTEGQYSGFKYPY
- protocol-notes: mP2X7 channel calcium-influx assay (Fluo-8 NW, FLIPR TETRA, Bz-ATP stimulation)
measured-attribute: IC50

                                   compound  observed
0  N#Cc1cccnc1OC1CCN(C(CNC(=O)c2c(F)cccc2Cl)c2scnc2C(F)F)CC1 (stereo not shown) [Example 36]    126 nM
1  O=C(NCC(c1scnc1C(F)F)N1CCC(Oc2cc(F)ccn2)CC1)c1c(F)cccc1Cl (stereo not shown) [Example 81]   38.1 nM
2  O=C(NCC(c1scnc1C(F)F)N1CCC(COc2cncc(F)n2)CC1)c1c(F)cccc1Cl (stereo not shown) [Example 105]   30.4 nM
3  O=C(NCC(c1scnc1C(F)F)N1CCC(COc2nccs2)CC1)c1c(F)cccc1Cl (stereo not shown) [Example 82]   41.9 nM

* * *

- measurement-target: UniProtKB Q99572
- Sequence (Q99572 whole entry): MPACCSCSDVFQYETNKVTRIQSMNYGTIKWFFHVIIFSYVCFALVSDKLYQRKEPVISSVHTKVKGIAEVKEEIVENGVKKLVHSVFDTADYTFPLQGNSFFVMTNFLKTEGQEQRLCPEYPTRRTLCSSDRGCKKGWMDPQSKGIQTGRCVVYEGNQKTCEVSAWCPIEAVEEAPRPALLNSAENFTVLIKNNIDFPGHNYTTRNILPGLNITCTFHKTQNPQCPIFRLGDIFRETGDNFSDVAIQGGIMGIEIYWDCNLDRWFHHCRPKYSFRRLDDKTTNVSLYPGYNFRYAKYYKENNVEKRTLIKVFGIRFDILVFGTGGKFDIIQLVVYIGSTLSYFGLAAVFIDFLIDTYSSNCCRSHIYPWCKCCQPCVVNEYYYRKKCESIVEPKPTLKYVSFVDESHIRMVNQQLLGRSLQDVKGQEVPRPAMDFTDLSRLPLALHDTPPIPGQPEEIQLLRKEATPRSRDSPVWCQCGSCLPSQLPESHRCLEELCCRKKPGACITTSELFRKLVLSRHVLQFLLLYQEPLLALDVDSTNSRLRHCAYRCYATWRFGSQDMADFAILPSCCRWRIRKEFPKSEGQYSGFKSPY
- protocol-notes: Human P2X7 channel calcium-influx assay (Fluo-8 NW, FLIPR TETRA, Bz-ATP stimulation)
- assay-context: HEK-293 cells stably transfected with P2X7 receptor, Low Divalent Cation Assay Buffer, read-out: hP2X7 IC50
Mark YES only when IC50 stays strictly below 50 nM. Values equal to the cut-off are NO.

>>> df
                                    molecule  class_assignment
 0  O=C(NCC(c1scnc1C(F)F)N1CCC(COc2cc(C(F)(F)F)ncn2)CC1)c1c(F)cccc1Cl (stereo not drawn)                NO
 1  O=C(NCC(c1scnc1C(F)F)N1CCC(COc2nc3ccccc3s2)CC1)c1c(F)cccc1Cl (stereo not drawn)               YES
 2  O=C(NCC(c1scnc1C(F)F)N1CCC(Oc2cccc(F)n2)CC1)c1c(F)cccc1Cl (stereo not drawn)               YES
 3  O=C(NCC(c1scnc1C(F)F)N1CCC(COc2ccn3nccc3n2)CC1)c1c(F)cccc1Cl (stereo not drawn)               YES
 4  N#Cc1nccnc1OC1CCN(C(CNC(=O)c2c(F)cccc2Cl)c2scnc2C(F)F)CC1 (stereo not drawn)                NO
 5  O=C(NCC(c1scnc1C(F)F)N1CCC(Oc2nc3ccccc3s2)CC1)c1c(F)cccc1Cl (stereo not drawn)               YES
 6  O=C(NCC(c1scnc1C(F)F)N1CCC(Oc2nccc(Cl)n2)CC1)c1c(F)cccc1Cl (stereo not drawn)                NO
 7  O=C(NCC(c1scnc1C(F)F)N1CCC(Oc2cc(F)ncn2)CC1)c1c(F)cccc1Cl (stereo not drawn)                NO
 8  O=C(NCC(c1scnc1C(F)F)N1CCC(Oc2ccccn2)CC1)c1c(F)cccc1Cl (stereo not drawn)               YES
 9  O=C(NCC(c1scnc1C(F)F)N1CCC(Oc2cncc(F)n2)CC1)c1c(F)cccc1Cl (stereo not drawn)               YES
10  O=C(NCC(c1scnc1C(F)F)N1CCC(Oc2cccnc2)CC1)c1c(F)cccc1Cl (stereo not drawn)               YES
11  O=C(NCC(c1scnc1C(F)F)N1CCC(COc2cncc3nncn23)CC1)c1c(F)cccc1Cl (stereo not drawn)                NO
12  O=C(NCC(c1scnc1C(F)F)N1CCC(COc2nc(Cl)cs2)CC1)c1c(F)cccc1Cl (stereo not drawn)               YES
13  O=C(NCC(c1scnc1C(F)F)N1CCC(COc2ccc(F)cn2)CC1)c1c(F)cccc1Cl (stereo not drawn)               YES
14  O=C(NCC(c1scnc1C(F)F)N1CCC(COc2nccn3nccc23)CC1)c1c(F)cccc1Cl (stereo not drawn)               YES
